Tested on: Jurkat HIV-luciferase clones
Assay: Jurkat latency reversal assay
Format: cell-based
Details: Homo sapiens, 48 h; Jurkat latency reversal assay potency; read-out: Jurkat pEC50 (converted)
readoutType: EC50

>  <structureSmilesString>
C[C@@H]1CN(CC(=O)N2CC(C)(C)c3[nH]c(=O)c(Cc4ccc(F)cc4)cc32)[C@@H](CN2CCO[C@H](COc3ccc(C(C)(C)c4ccc(OC[C@@H]5CN(C[C@H]6CN[C@H](C)CN6CC(=O)N6CC(C)(C)c7[nH]c(=O)c(Cc8ccc(F)cc8)cc76)CCO5)cc4)cc3)C2)CN1

>  <readoutType>
EC50

>  <experimentalResult>
12.6 to 63.1 nM

$$$$
>  <structureSmilesString>
C[C@@H]1CN(CC(=O)N2CC(C)(C)c3[nH]c(=O)c(Cc4ccc(F)cc4)cc32)[C@@H](CN2CCO[C@H](C(=O)N(C)CCCCN(C)C(=O)[C@@H]3CN(C[C@H]4CN[C@H](C)CN4CC(=O)N4CC(C)(C)c5[nH]c(=O)c(Cc6ccc(F)cc6)cc54)CCO3)C2)CN1

>  <readoutType>
EC50

>  <experimentalResult>
63.1 to 316 nM

$$$$
>  <structureSmilesString>
C[C@@H]1CN(CC(=O)N2CC(C)(C)c3[nH]c(=O)c(Cc4ccc(F)cc4)cc32)[C@@H](CN2CCN(C(=O)CN(C)CC(=O)N3CCN(C[C@H]4CN[C@H](C)CN4CC(=O)N4CC(C)(C)c5[nH]c(=O)c(Cc6ccc(F)cc6)cc54)[C@H](C)C3)C[C@H]2C)CN1

>  <readoutType>
EC50

>  <experimentalResult>
63.1 to 316 nM

$$$$
>  <structureSmilesString>
C[C@@H]1CN(CC(=O)N2CC(C)(C)c3[nH]c(=O)c(Cc4ccc(F)cc4)cc32)[C@@H](CN2CCO[C@H](COCc3cccc(COC[C@@H]4CN(C[C@H]5CN[C@H](C)CN5CC(=O)N5CC(C)(C)c6[nH]c(=O)c(Cc7ccc(F)cc7)cc65)CCO4)c3)C2)CN1

>  <readoutType>
EC50

>  <experimentalResult>
0.49 to 12.6 nM

$$$$

* * *

Overview of recorded pIC50 for various molecules
Target: cIAP1-BIR2 (Homo sapiens (Human), UniProt Q13490)
Sequence (Q13490 173-257): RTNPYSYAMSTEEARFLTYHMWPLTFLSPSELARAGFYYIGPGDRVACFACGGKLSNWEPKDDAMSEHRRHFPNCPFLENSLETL
Assay: BIR binding assay (FRET competition), cIAP1 BIR2
pIC50: −log10 of the molar value.
readoutType: pIC50

>  <molecule>
C[C@@H]1CN(CC(=O)N2CC(C)(C)c3[nH]c(=O)c(Cc4ccc(F)cc4)cc32)[C@@H](CN2CCO[C@H](C(=O)N(C)CC3CCN(C(=O)[C@@H]4CN(C[C@H]5CN[C@H](C)CN5CC(=O)N5CC(C)(C)c6[nH]c(=O)c(Cc7ccc(F)cc7)cc65)CCO4)CC3)C2)CN1 [Example 132]

>  <assayedSystem>
cIAP1-BIR2 (Homo sapiens (Human), UniProt Q13490)

>  <readoutType>
pIC50

>  <experimentalResult>
5.00 to 5.50

$$$$
>  <molecule>
C[C@@H]1CN(CC(=O)N2CC(C)(C)c3[nH]c(=O)c(Cc4ccc(F)cc4)cc32)[C@@H](CN2CCO[C@H](C(=O)NCC(=O)N3CCN(C[C@H]4CN[C@H](C)CN4CC(=O)N4CC(C)(C)c5[nH]c(=O)c(Cc6ccc(F)cc6)cc54)[C@H](C)C3)C2)CN1 [Compound 159]

>  <assayedSystem>
cIAP1-BIR2 (Homo sapiens (Human), UniProt Q13490)

>  <readoutType>
pIC50

>  <experimentalResult>
6.00 to 7.65

$$$$
>  <molecule>
C[C@@H]1CN(CC(=O)N2CC(C)(C)c3[nH]c(=O)c(Cc4ccc(F)cc4)cc32)[C@@H](CN2CCO[C@H](COc3ccc(F)c(OC[C@@H]4CN(C[C@H]5CN[C@H](C)CN5CC(=O)N5CC(C)(C)c6[nH]c(=O)c(Cc7ccc(F)cc7)cc65)CCO4)c3)C2)CN1 [Example 75]

>  <assayedSystem>
cIAP1-BIR2 (Homo sapiens (Human), UniProt Q13490)

>  <readoutType>
pIC50

>  <experimentalResult>
6.00 to 7.65

$$$$
>  <molecule>
C[C@@H]1CN(CC(=O)N2CC(C)(C)c3ncc(Cc4ccc(F)cc4)cc32)[C@@H](CN2CCO[C@H](COc3cccc(OC[C@@H]4CN(C[C@H]5CN[C@H](C)CN5CC(=O)N5CC(C)(C)c6ncc(Cc7ccc(F)cc7)cc65)CCO4)c3)C2)CN1 [Compound 145]

>  <assayedSystem>
cIAP1-BIR2 (Homo sapiens (Human), UniProt Q13490)

>  <readoutType>
pIC50

>  <experimentalResult>
5.00 to 5.50

$$$$
>  <molecule>
C[C@@H]1CN(CC(=O)N2CC(C)(C)c3c2cc(Cc2ccc(F)cc2)c(=O)n3C)[C@@H](CN2CCO[C@H](COc3ccc(Cc4ccc(OC[C@@H]5CN(C[C@H]6CN[C@H](C)CN6CC(=O)N6CC(C)(C)c7c6cc(Cc6ccc(F)cc6)c(=O)n7C)CCO5)cc4)cc3)C2)CN1 [Example 115]

>  <assayedSystem>
cIAP1-BIR2 (Homo sapiens (Human), UniProt Q13490)

>  <readoutType>
pIC50

>  <experimentalResult>
5.00 to 5.50

$$$$
>  <molecule>
C[C@@H]1CN(CC(=O)N2CC(C)(C)c3[nH]c(=O)c(Cc4ccc(F)cc4)cc32)[C@@H](CN2CCO[C@H](C(=O)NCc3cccc(CNC(=O)[C@@H]4CN(C[C@H]5CN[C@H](C)CN5CC(=O)N5CC(C)(C)c6[nH]c(=O)c(Cc7ccc(F)cc7)cc65)CCO4)c3)C2)CN1 [Example 122]

>  <assayedSystem>
cIAP1-BIR2 (Homo sapiens (Human), UniProt Q13490)

>  <readoutType>
pIC50

>  <experimentalResult>
5.50 to 6.00

$$$$
>  <molecule>
C[C@@H]1CN(CC(=O)N2CC(C)(C)c3[nH]c(=O)c(Cc4ccc(F)cc4)cc32)[C@@H](CN2CCO[C@H](COc3ccc(OC[C@@H]4CN(C[C@H]5CN[C@H](C)CN5CC(=O)N5CC(C)(C)c6[nH]c(=O)c(Cc7ccc(F)cc7)cc65)CCO4)cc3)C2)CN1 [Example 70]

>  <assayedSystem>
cIAP1-BIR2 (Homo sapiens (Human), UniProt Q13490)

>  <readoutType>
pIC50

>  <experimentalResult>
5.50 to 6.00

$$$$

* * *

Molecular target: XIAP-BIR3 (Homo sapiens (Human))
Sequence (P98170 241-356): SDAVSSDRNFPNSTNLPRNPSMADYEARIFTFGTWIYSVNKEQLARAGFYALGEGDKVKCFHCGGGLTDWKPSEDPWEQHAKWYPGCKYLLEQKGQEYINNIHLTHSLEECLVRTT
Assay: BIR binding assay (FRET competition), XIAP BIR3
Details: fold separation (FS) for XIAP
readoutType: XIAP BIR3 vs BIR2 separation window

>  <compound>
C[C@@H]1CN(CC(=O)N2CC(C)(C)c3[nH]c(=O)c(Cc4ccc(F)cc4)cc32)[C@@H](CN2CCO[C@H](C(=O)NCCCN(C)C(=O)[C@@H]3CN(C[C@H]4CN[C@H](C)CN4CC(=O)N4CC(C)(C)c5[nH]c(=O)c(Cc6ccc(F)cc6)cc54)CCO3)C2)CN1 [Compound 135]

>  <assayedSystem>
XIAP-BIR3 (Homo sapiens (Human))

>  <experimentalResult>
++++ (FS>10,000)

$$$$
>  <compound>
C[C@@H]1CN(CC(=O)N2CC(C)(C)c3[nH]c(=O)c(Cc4ccc(F)cc4)cc32)[C@@H](CN2CCO[C@H](C(=O)N3CCN(C(=O)[C@@H]4CN(C[C@H]5CN[C@H](C)CN5CC(=O)N5CC(C)(C)c6[nH]c(=O)c(Cc7ccc(F)cc7)cc65)CCO4)CC3)C2)CN1 [Example 118]

>  <assayedSystem>
XIAP-BIR3 (Homo sapiens (Human))

>  <experimentalResult>
++++ (FS>10,000)

$$$$
>  <compound>
C[C@@H]1CN(CC(=O)N2CC(C)(C)c3[nH]c(=O)c(Cc4ccc(F)cc4)cc32)[C@@H](CN2CCO[C@H](COc3ccc(Oc4cccc(Oc5ccc(OC[C@@H]6CN(C[C@H]7CN[C@H](C)CN7CC(=O)N7CC(C)(C)c8[nH]c(=O)c(Cc9ccc(F)cc9)cc87)CCO6)cc5)c4)cc3)C2)CN1 [Example 60]

>  <assayedSystem>
XIAP-BIR3 (Homo sapiens (Human))

>  <experimentalResult>
++++ (FS>10,000)

$$$$

* * *

Overview of recorded IC50 for various compounds
Target: cIAP2-BIR3 (Homo sapiens (Human), UniProt Q13489)
Sequence (Q13489 238-349): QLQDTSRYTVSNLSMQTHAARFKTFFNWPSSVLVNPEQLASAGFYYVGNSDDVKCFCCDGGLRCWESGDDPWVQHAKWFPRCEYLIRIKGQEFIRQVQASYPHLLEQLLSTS
Test: BIR binding assay (FRET competition), cIAP2 BIR3
Description: The BIR domain binding assays are FRET based competition assays that utilize His-tagged versions of each of the BIR2 and BIR3 domains from cIAP1, cIAP2, and XIAP (each domain assayed separately) each at a custom optimal concentration and a probe, 200 nM SMAC/DIABLO peptide […] labelled with AlexaFluor647 (part #crb 1110326h, Discovery Peptides). The assay is conducted in 50 mM HEPES, […], 1 mM CHAPS, 5% Glycerol, 1 mM DTT, in dI water with a final pH of 7.4 and final volume of 20 uL. […]
readoutType: IC50

>  <structureSmilesString>
C[C@@H]1CN(CC(=O)N2CC(C)(C)c3[nH]c(=O)c(Cc4ccc(F)cc4)cc32)[C@@H](CN2CCO[C@H](COc3ccc(-c4ccccc4)c(OC[C@@H]4CN(C[C@H]5CN[C@H](C)CN5CC(=O)N5CC(C)(C)c6[nH]c(=O)c(Cc7ccc(F)cc7)cc65)CCO4)c3)C2)CN1

>  <readoutType>
IC50

>  <experimentalResult>
1.38 to 7.94 nM

$$$$
>  <structureSmilesString>
C[C@@H]1CN(CC(=O)N2CC(C)(C)c3[nH]c(=O)c(Cc4ccc(F)cc4)cc32)[C@@H](CN2CCC(CN(C)C(=O)c3cccc(C(=O)N(C)CC4CCN(C[C@H]5CN[C@H](C)CN5CC(=O)N5CC(C)(C)c6[nH]c(=O)c(Cc7ccc(F)cc7)cc65)CC4)c3)CC2)CN1

>  <readoutType>
IC50

>  <experimentalResult>
1.38 to 7.94 nM

$$$$
>  <structureSmilesString>
C[C@@H]1CN(CC(=O)N2CC(C)(C)c3[nH]c(=O)c(Cc4ccc(F)cc4)cc32)[C@@H](CN2CCC(CNC(=O)Cc3ccc(CC(=O)NCC4CCN(C[C@H]5CN[C@H](C)CN5CC(=O)N5CC(C)(C)c6[nH]c(=O)c(Cc7ccc(F)cc7)cc65)CC4)cc3)CC2)CN1

>  <readoutType>
IC50

>  <experimentalResult>
7.94 to 15.8 nM

$$$$
>  <structureSmilesString>
C[C@@H]1CN(CC(=O)N2CC(C)(C)c3[nH]c(=O)c(Cc4ccc(F)cc4)cc32)[C@@H](CN2CCC[C@H](NC(=O)CCCCCCCCCCCCC(=O)N[C@H]3CCCN(C[C@H]4CN[C@H](C)CN4CC(=O)N4CC(C)(C)c5[nH]c(=O)c(Cc6ccc(F)cc6)cc54)C3)C2)CN1

>  <readoutType>
IC50

>  <experimentalResult>
15.8 to 31.6 nM

$$$$
>  <structureSmilesString>
C[C@@H]1CN(CC(=O)N2CC(C)(C)c3[nH]c(=O)c(Cc4ccc(F)cc4)cc32)[C@@H](CN2CCO[C@H](COc3ccc(C(C)(C)c4ccc(C(C)(C)c5ccc(OC[C@@H]6CN(C[C@H]7CN[C@H](C)CN7CC(=O)N7CC(C)(C)c8[nH]c(=O)c(Cc9ccc(F)cc9)cc87)CCO6)cc5)cc4)cc3)C2)CN1

>  <readoutType>
IC50

>  <experimentalResult>
31.6 to 501 nM

$$$$
>  <structureSmilesString>
C[C@@H]1CN(CC(=O)N2CC(C)(C)c3[nH]c(=O)c(Cc4ccc(F)cc4)cc32)[C@@H](CN2CCO[C@H](C(=O)NCc3cccc(CNC(=O)[C@@H]4CN(C[C@H]5CN[C@H](C)CN5CC(=O)N5CC(C)(C)c6[nH]c(=O)c(Cc7ccc(F)cc7)cc65)CCO4)c3)C2)CN1

>  <readoutType>
IC50

>  <experimentalResult>
7.94 to 15.8 nM

$$$$
>  <structureSmilesString>
Cc1c(OC[C@@H]2CN(C[C@H]3CN[C@H](C)CN3CC(=O)N3CC(C)(C)c4[nH]c(=O)c(Cc5ccc(F)cc5)cc43)CCO2)cccc1OC[C@@H]1CN(C[C@H]2CN[C@H](C)CN2CC(=O)N2CC(C)(C)c3[nH]c(=O)c(Cc4ccc(F)cc4)cc32)CCO1

>  <readoutType>
IC50

>  <experimentalResult>
1.38 to 7.94 nM

$$$$
